Each entry below lists one item and its recorded Kd value.
- tgt: GDP-bound KRAS wild-type protein (Homo sapiens)
- Sequence (P01116 1-188 isoform P01116-2): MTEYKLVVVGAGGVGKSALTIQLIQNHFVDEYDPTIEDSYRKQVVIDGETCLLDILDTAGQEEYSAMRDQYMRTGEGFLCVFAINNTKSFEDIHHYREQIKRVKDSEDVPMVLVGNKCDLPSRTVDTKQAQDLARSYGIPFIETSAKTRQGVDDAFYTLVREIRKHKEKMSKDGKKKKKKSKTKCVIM
- methodSummary: Binding to KRAS by surface plasmon resonance (SPR), dissociation constant KD
- conditionContext: Single Cycle Kinetics
*1 amine or outer side, *2 acyl side, *3 side chain or, on linkers, in order; H or OH if unused. Where a SMILES comes first, the peptide text is derived from it. Bridges are numbered along the chain shown (N, C = ends). [ ]: non-standard residue; d: D form. The star is where a group is joined. hPhe(3,5-F2-4-CF3) = N[C@@H](CCc1cc(F)c(C(F)(F)F)c(F)c1)C(=O)O; NPrPhe(4-CF3) = CCCN[C@@H](Cc1ccc(C(F)(F)F)cc1)C(=O)O; NMeGly(cPent) = CN[C@H](C(=O)O)C1CCCC1; X3 = CCC[C@](C)(N[*:1])C(=O)[*:2]; NMeD = CN[C@@H](CC(=O)O)C(=O)O; NMeL = CN[C@@H](CC(C)C)C(=O)O; Morpholide = C1CN(*)CCO1; Aze = O=C(O)[C@@H]1CCN1; Sar = CNCC(=O)O
Give the quantity in nM, number only.

Consider the worked cases shown below.
- molecule: "CCO[C@@H]1C[C@H]2C(=O)OC3(CCC3)C(=O)N(C)[C@@H](C3CCCC3)C(=O)N(C)[C@H](C(=O)N(C)C)CC(=O)N(C)[C@@H](CC(C)C)C(=O)N[C@@H]([C@@H](C)CC)C(=O)N(C)CC(=O)N(C)[C@H]3C/C=C\\CCN(C3=O)[C@@H](Cc3ccc(C)cc3)C(=O)N(C)CC(=O)N[C@@H](CCc3ccc(C(F)(F)F)c(OC)c3)C(=O)N2C1 [PP3382]"
  tgt: "GDP-bound KRAS wild-type protein (Homo sapiens)"
  readoutName: "Kd"
  uom: "nM"
  recordedValue: 0.2
- molecule: "CCO[C@@H]1C[C@H]2C(=O)NC3(CCC3)C(=O)N(C)[C@@H](C3CCCC3)C(=O)N(C)[C@H](C(=O)N3CCOCC3)CC(=O)N(C)[C@@H](CC(C)C)C(=O)N[C@@H]([C@@H](C)CC)C(=O)N(C)CC(=O)N(C)[C@H]3CCCCCN(C3=O)[C@@H](Cc3ccc(F)c(F)c3)C(=O)N(C)CC(=O)N[C@@H](CCc3cc(F)c(C(F)(F)F)c(F)c3)C(=O)N2C1 [PP0917]"
  tgt: "GDP-bound KRAS wild-type protein (Homo sapiens)"
  readoutName: "Kd"
  uom: "nM"
  recordedValue: 0.16
- molecule: "C#CC[C@H]1C(=O)N[C@@H]([C@@H](C)CC)C(=O)N2CCC[C@H]2C(=O)N(C)[C@H]2C/C=C\\CCN(C2=O)[C@@H](Cc2ccc(C)cc2)C(=O)N(C)CC(=O)N[C@@H](CCc2ccc(C(F)(F)F)c(OC)c2)C(=O)N2C[C@H](OCC)C[C@H]2C(=O)OC2(CCC2)C(=O)N(C)[C@@H](C2CCCC2)C(=O)N(C)[C@H](C(=O)N(C)C)CC(=O)N1C [PP3389]"
  tgt: "GDP-bound KRAS wild-type protein (Homo sapiens)"
  readoutName: "Kd"
  uom: "nM"
  recordedValue: 0.38
- molecule: "CCC[C@H]1C(=O)N[C@@H]([C@@H](C)CC)C(=O)N(C)CC(=O)N(C)[C@H]2C/C=C\\CCN(C2=O)[C@@H](Cc2ccc(C(F)(F)F)cc2)C(=O)N(C)CC(=O)N[C@@H](CCc2cc(F)c(C(F)(F)F)c(F)c2)C(=O)N2CC3(CC3)C[C@H]2C(=O)NC2(CCC2)C(=O)N(C)[C@@H](CC(C)(C)C)C(=O)N(C)[C@H](C(=O)N(C)C)CC(=O)N1C [PP3406]"
  tgt: "GDP-bound KRAS wild-type protein (Homo sapiens)"
  readoutName: "Kd"
  uom: "nM"
  recordedValue: 0.035
- molecule: "CCO[C@@H]1C[C@H]2C(=O)NC3(CC(C)(C)C3)C(=O)N(C)[C@@H](C3CCCC3)C(=O)N(C)[C@H](C(=O)N(C)CC)CC(=O)N(C)[C@@H]([C@H](C)OC)C(=O)N[C@@H]([C@@H](C)CC)C(=O)N(C3CC3)CC(=O)N(C)[C@H]3C/C=C\\CCN(C3=O)[C@@H](Cc3ccc(C(F)(F)F)cc3)C(=O)N(C)CC(=O)N[C@@H](CCc3cc(F)c(C(F)(F)F)c(F)c3)C(=O)N2C1 [PP3220]"
  tgt: "GDP-bound KRAS wild-type protein (Homo sapiens)"
  readoutName: "Kd"
  uom: "nM"
  recordedValue: 0.52
- molecule: "CCC[C@H]1C(=O)N[C@@H]([C@@H](C)CC)C(=O)N2CCCCC[C@H]2C(=O)N(C)[C@H]2C/C=C\\CCN(C2=O)[C@@H](Cc2ccc(C)cc2)C(=O)N(C)CC(=O)N[C@@H](CCc2ccc(C(F)(F)F)c(OC)c2)C(=O)N2C[C@H](OCC)C[C@H]2C(=O)N(C)C2(CCC2)C(=O)N(C)[C@@H](C2CCCC2)C(=O)N(C)[C@H](C(=O)N(C)C)CC(=O)N1C [PP3279]"
  tgt: "GDP-bound KRAS wild-type protein (Homo sapiens)"
  readoutName: "Kd"
  uom: "nM"
  recordedValue: 4.5

Can you look up the measured Kd of CCC[C@H]1C(=O)N[C@@H]([C@@H](C)CC)C(=O)N(C)CC(=O)N(C)[C@H]2C/C=C\CCN(C2=O)[C@@H](Cc2ccc(C)cc2)C(=O)N(C)CC(=O)N[C@@H](CCc2ccc(C(F)(F)F)c(OC)c2)C(=O)N2CC3(CC3)C[C@H]2C(=O)N(C)C2(CCC2)C(=O)N(C)[C@@H](CC(C)(C)C)C(=O)N(C)[C@H](C(=O)N(C)C)CC(=O)N1C [PP3296] for me?
0.079

Given the molecule CCCN1C(=O)CN(C)C(=O)[C@@H]2CCN2C(=O)[C@H]([C@@H](C)CC)NC(=O)[C@H](CC(C)C)N(C)C(=O)C[C@@H](C(=O)N2CCOCC2)N(C)C(=O)[C@H](C2CCCC2)N(C)C(=O)[C@](C)(CCC)NC(=O)[C@@H]2CCCN2C(=O)[C@H](CCc2cc(F)c(C(F)(F)F)c(F)c2)NC(=O)CN(C)C(=O)[C@@H]1Cc1ccc(C(F)(F)F)cc1 [PP0775] ([NMeL]I[Aze][Sar][NPrPhe(4-CF3)][Sar][hPhe(3,5-F2-4-CF3)]P[X3][NMeGly(cPent)][NMeD]-Morpholide; lactam N-11) , what is its reported Kd?
9.2

Recorded Kd for C=CC[C@H]1C(=O)N(C)[C@H](C(=O)N(C)C)CC(=O)N(C)[C@@H](CCC)C(=O)N[C@@H]([C@@H](C)CC)C(=O)N(C)CC(=O)N(C)[C@H]2C/C=C\CCN(C2=O)[C@@H](Cc2ccc(C(F)(F)F)cc2)C(=O)N(C)CC(=O)N[C@@H](CCc2cc(F)c(C(F)(F)F)c(F)c2)C(=O)N2C[C@H](OCC)C[C@H]2C(=O)N(C)C2(CCC2)C(=O)N1C [PP3336] , please?
1.5

// returns reported Kd for input CCO[C@@H]1C[C@H]2C(=O)NC3(CC(C)(C)C3)C(=O)N(C)[C@@H](C3CCCC3)C(=O)N(C)[C@H](C(=O)N(C)C)CC(=O)N(C)[C@@H]([C@H](C)OC)C(=O)N[C@@H]([C@@H](C)CC)C(=O)N(C)CC(=O)N(C)[C@H]3C/C=C\CCN(C3=O)[C@@H](Cc3ccc(C(F)(F)F)cc3)C(=O)N(C)CC(=O)N[C@@H](CCc3ccc(C(F)(F)F)c(OC)c3)C(=O)N2C1 [PP3167]
0.1

Look up Kd: C=CCCCC[C@H]1C(=O)N[C@@H]([C@@H](C)CC)C(=O)N(C)CC(=O)N(C)[C@H]2CCCCCN(C2=O)[C@@H](Cc2ccc(C(F)(F)F)cc2)C(=O)N(C)CC(=O)N[C@@H](CCc2cc(F)c(C(F)(F)F)c(F)c2)C(=O)N2C[C@H](OCC)C[C@H]2C(=O)N[C@](C)(CC=C)C(=O)N(C)[C@@H](C2CCCC2)C(=O)N(C)[C@H](C(=O)N2CCOCC2)CC(=O)N1C [PP0881]
5.5

###

- tgt: GDP-bound KRAS wild-type protein (Homo sapiens)
- methodSummary: Binding to KRAS by surface plasmon resonance (SPR), dissociation constant KD
- conditionContext: 1:1 binding model
- Procedure: Surface plasmon resonance was used to analyze the binding affinity of compounds for KRAS, NRAS, and HRAS. […] The resulting sensorgram was subjected to curve fitting based on a 1:1 binding model on Biacore Insight Evaluation Software or T200 Evaluation Software, and thereby the dissociation constant KD of each compound with respect to KRAS, NRAS, and HRAS was determined. […]
# Kd values compiled below
Numbers only here, please. The scale is nM.

Entry CCOC[C@H]1C(=O)N[C@@H]([C@@H](C)CC)C(=O)N(C2CC2)CC(=O)N(C)[C@H]2C/C=C\CCN(C2=O)[C@@H](Cc2ccc(C)cc2)C(=O)N(C)CC(=O)N[C@@H](CCc2cc(F)c(C(F)(F)F)c(F)c2)C(=O)N2C[C@H](OCC)C[C@H]2C(=O)NC2(CC(C)(C)C2)C(=O)N(C)[C@@H](CC(C)(C)C)C(=O)N(C)[C@H](C(=O)N(C)C)CC(=O)N1C [PP2720] has what Kd?
0.35

// Kd lookup, key: CCC[C@H]1C(=O)N[C@@H](CC(C)C)C(=O)N(C2CC2)CC(=O)N(C)[C@H]2C/C=C\CCN(C2=O)[C@@H](Cc2ccc(C)cc2)C(=O)N(C)CC(=O)N[C@@H](CCc2ccc(C(F)(F)F)c(OC)c2)C(=O)N2C[C@H](OCC)C[C@H]2C(=O)NC2(CC(C)(C)C2)C(=O)N(C)[C@@H](C2CCCC2)C(=O)N(C)[C@H](C(=O)N(C)C)CC(=O)N1C [PP2510]
3.9
